// data source = the supplement of paper PMC10724198

- Test system: Saccharomyces cerevisiae
- assay.info: protein stability index of tFT-peptide fusion (C-terminal peptide) (PSI (0-1 scale)); higher = more stable (slower turnover)
- condition.notes: genetic background: wild type; temperature: 30 C
Mark 0 for protein stability index values under 0.7, and 1 for everything at or above.

SHPAPGSPTSPS 0
GWSVGQSEMNTY 1
SGALSDVCVMLL 0
EKYASINSSKPP 0
FCLGMRKHSSPL 1
PSPPPAPAPLLA 0

Query block: API: above_or_equal(metric=protein stability index, cutoff=0.7) for item `SLLCDQSSLGQC`
Result block: 1

Query block: API: above_or_equal(metric=protein stability index, cutoff=0.7) for item `GFVLLCFCCRTW`
Result block: 0

Query block: API: above_or_equal(metric=protein stability index, cutoff=0.7) for item `REIVLQTSAAYN`
Result block: 0

Query block: API: above_or_equal(metric=protein stability index, cutoff=0.7) for item `PPGPPRPFPSHL`
Result block: 1

Query block: API: above_or_equal(metric=protein stability index, cutoff=0.7) for item `RASGSFPSLVFS`
Result block: 1

Query block: API: above_or_equal(metric=protein stability index, cutoff=0.7) for item `QWRMLTCLMERL`
Result block: 0

Query block: API: above_or_equal(metric=protein stability index, cutoff=0.7) for item `WSWEVTSSVCRI`
Result block: 1

Query block: API: above_or_equal(metric=protein stability index, cutoff=0.7) for item `VGFVAWFRNVCR`
Result block: 0

----------
- Test system: Saccharomyces cerevisiae
- assay.info: protein stability index of tFT-peptide fusion (C-terminal peptide) (PSI (0-1 scale)); higher = more stable (slower turnover)
- condition.notes: genetic background: das1 deletion; temperature: 37 C
Reported protein stability index maps to class as: low range = under 0.5, mid range = from 0.5 up to 0.6, high range = 0.6 and over

Query block: Determine which band this sequence sits in: `VLLSSSLVFLIS`
Result block: high range

Query block: Determine which band this sequence sits in: `FMPFSLLALFVW`
Result block: low range

Query block: Determine which band this sequence sits in: `VWFLLFVVWCGS`
Result block: low range

Query block: Determine which band this sequence sits in: `LINHSWLLLSVL`
Result block: mid range

Query block: Determine which band this sequence sits in: `GSLLNLSLRWLV`
Result block: high range

Query block: Determine which band this sequence sits in: `CLCFFMSILWWV`
Result block: mid range

Query block: Determine which band this sequence sits in: `FLLPILSSSPVL`
Result block: high range

Query block: Determine which band this sequence sits in: `VVACCVVFWVLP`
Result block: low range

----------
The entries below are paired with their reported protein stability index.
- Tested on: Saccharomyces cerevisiae
- assay.info: protein stability index of tFT-peptide fusion in wild type (PSI (0-1 scale)); higher = more stable (slower turnover)
- condition.notes: genetic background: wild type
Would you mind answering with just the numeric figure?

Here are 8 sequences together with their reported answers.
RSLRVLLHLYFR 0.254
CTSCGYHFRTNN 0.258
CLVSLMILLFFR 0.256
LKILRQLMNHQN 0.219
ARWRVGLWRTAS 0.0835
FSMRVTFRYWVN 0.0315
CWSCGYKFRTNN 0.167
RVTRLDAINFRI 0.683

Query block: I am curious: what protein stability index value has been reported for `CSLRVLLPLYFR` ?
Result block: 0.0975

Query block: I am curious: what protein stability index value has been reported for `ELVSLPILLFFR` ?
Result block: 0.0794

Query block: I am curious: what protein stability index value has been reported for `ARWRVGLWGGAS` ?
Result block: 0.554

Query block: I am curious: what protein stability index value has been reported for `RVTRLDAIYFPI` ?
Result block: 0.703
